Form: system (Alpha-2A adrenergic receptor (Homo sapiens, UniProt P08913)), quantity (AC50), values below. Also: assay procedure not described here.

Please state, for each entry, its recorded AC50.
1. Cc1cc(=O)n(-c2ccccc2)n1C [ANTIPYRINE]
2. O=C(O)Cc1ccccc1Oc1ccc(Cl)cc1Cl [FENCLOFENAC]
3. Cc1ccnc2c1NC(=O)c1cccnc1N2C1CC1 [NEVIRAPINE]
4. CCCc1nc2c(C)cc(-c3nc4ccccc4n3C)cc2n1Cc1ccc(-c2ccccc2C(=O)O)cc1

Result:
["> 10 µM", "> 10 µM", "> 10 µM", "> 30 µM"]

* * *

Form: system (Adenosine receptor A3 (Homo sapiens, UniProt P0DMS8)), quantity (AC50), values below. Also: assay procedure not described here.

Consider the reported AC50 for these compounds:
compound	property-label	result
C[N+](C)(CCCCCC[N+](C)(C)C1c2ccccc2-c2ccccc21)C1c2ccccc2-c2ccccc21	AC50	> 30 µM
CC(O)(P(=O)(O)O)P(=O)(O)O	AC50	> 30 µM
CCN(CC)CCCC(C)Nc1c2ccc(Cl)cc2nc2ccc(OC)cc12 (stereo not drawn)	AC50	> 30 µM
O=C(O)COCCN1CCN(C(c2ccccc2)c2ccc(Cl)cc2)CC1 (stereo not drawn)	AC50	> 30 µM
CC(C)C(=O)Oc1ccc(CO)cc1[C@H](CCN(C(C)C)C(C)C)c1ccccc1	AC50	> 30 µM
CCCc1nc2c(C)cc(-c3nc4ccccc4n3C)cc2n1Cc1ccc(-c2ccccc2C(=O)O)cc1	AC50	17.4 µM
CCCSc1nc(N[C@@H]2C[C@H]2c2ccc(F)c(F)c2)c2nnn([C@@H]3C[C@H](OCCO)[C@@H](O)[C@H]3O)c2n1	AC50	0.106 µM

Now look at this entry.
Query: Which AC50 value is on record for Cc1cn([C@H]2O[C@@H](CO)[C@H](O)[C@H]2F)c(=O)[nH]c1=O ?
Result: > 30 µM

Where do these numbers come from? They come from ChEMBL document CHEMBL5291721.
